Biological target: MELK (human) (UniProt Q14680)
Sequence (Q14680 whole entry, looked up): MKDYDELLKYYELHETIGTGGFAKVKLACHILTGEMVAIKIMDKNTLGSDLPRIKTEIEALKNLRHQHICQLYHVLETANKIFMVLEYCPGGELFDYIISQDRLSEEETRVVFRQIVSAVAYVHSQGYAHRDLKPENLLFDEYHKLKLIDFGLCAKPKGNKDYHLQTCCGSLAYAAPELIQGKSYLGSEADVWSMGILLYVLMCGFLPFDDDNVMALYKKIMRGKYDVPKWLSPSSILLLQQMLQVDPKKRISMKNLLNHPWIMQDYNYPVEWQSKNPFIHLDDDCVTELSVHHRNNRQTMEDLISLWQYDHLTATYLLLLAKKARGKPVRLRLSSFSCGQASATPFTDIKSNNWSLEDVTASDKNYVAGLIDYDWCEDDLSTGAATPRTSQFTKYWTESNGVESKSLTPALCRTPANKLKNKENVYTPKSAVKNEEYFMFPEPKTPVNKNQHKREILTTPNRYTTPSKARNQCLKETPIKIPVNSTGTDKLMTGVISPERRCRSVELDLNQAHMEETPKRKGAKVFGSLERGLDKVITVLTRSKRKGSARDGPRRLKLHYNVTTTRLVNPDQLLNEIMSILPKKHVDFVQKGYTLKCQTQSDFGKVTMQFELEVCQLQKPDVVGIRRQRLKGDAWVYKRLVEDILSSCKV
Test: radiometric filter-binding kinase assay, Kinase HotSpot
Details: compound 0.5 µM; ATP 10 µM
Kindly state residual activity for each of the entries shown.
Report the value in % with no unit label.

In plain terms, `Cc1cccc(-c2nc(C(C)(C)C)[nH]c2-c2ccc3c(c2)OCO3)n1` has a documented residual activity of 92.7

Lab book: residual activity of `COc1ccc2c(c1)/C(=C/c1cnc[nH]1)C(O)=N2` noted as 36.5

The molecule identified as `Cc1nc(-c2ccccc2)c(-c2ccncc2)o1` registered its residual activity at 105

Value of measured residual activity for the entry `O=C1c2ccccc2-c2nc3nnnn3nc21` : 55.7

Per the records, this molecule ( `c1ccc2c(-c3ccncc3)c[nH]c2c1` ) has residual activity equal to 102

Reported residual activity ( `COc1cc(Nc2c(C#N)cnc3cc(OCCCN4CCN(C)CC4)c(OC)cc23)c(Cl)cc1Cl` ) = 25.8

Value of residual activity reported for the molecule `N#C/C(=C\c1ccc(O)c(O)c1)C(=O)NCc1ccccc1` is 100

get_value(item= `COc1cc2ncnc(Nc3ccc(Oc4ccccc4)cc3)c2cc1OC` , readout=residual activity) returns 101

Entry `O=C(c1cc2cc(O)ccc2[nH]1)c1cc2cc(O)ccc2[nH]1` , residual activity reported as 49.2

Entry under test: `CCCCc1c(-c2ccc(OC)cc2)[nH]c2nccnc12` . Its residual activity was 84.4

Notebook: `COc1ccc(S(=O)(=O)N(CCO)c2ccccc2CN(C)C/C=C/c2ccc(Cl)cc2)cc1` , residual activity read as 99.4

Memo: `Fc1ccc(-c2nc3n(c2-c2ccncc2)CCS3)cc1` , reported residual activity: 102

In plain terms, `Ic1cccc(CSc2nnc(-c3ccncc3)o2)c1` has a documented residual activity of 97.7

Quick note, residual activity for `COc1cc2ncnc(Nc3ccc(OCc4ccccc4)cc3)c2cc1OC` landed at 102

Record `CO[C@@H]1[C@H](N(C)C(=O)c2ccccc2)C[C@H]2O[C@]1(C)n1c3ccccc3c3c4c(c5c6ccccc6n2c5c31)C(=O)NC4` , field residual activity: 4.87
